Attribution: patent US9529005B2

System: Escherichia coli
test_method_notes: Antimicrobial susceptibility testing (MIC), BD Phoenix Automated Microbiology System
Assay type: cell-based
condition_description: Escherichia coli, Escherichia coli isolate 2; read-out: minimal inhibiting concentration

[
  {
    "compound": "O=C(O)c1cn(C2CC2)c2cc(N3CCNCC3)c(F)cc2c1=O",
    "MIC": "> 2 µg/mL"
  },
  {
    "compound": "C[C@H]1[C@H](NC(=O)/C(=N\\OC(C)(C)C(=O)O)c2csc(N)n2)C(=O)N1S(=O)(=O)O",
    "MIC": "> 16 µg/mL"
  },
  {
    "compound": "CC(C)(O/N=C(\\C(=O)N[C@@H]1C(=O)N2C(C(=O)[O-])=C(C[n+]3ccccc3)CS[C@H]12)c1csc(N)n1)C(=O)O",
    "MIC": "> 16 µg/mL"
  },
  {
    "compound": "CN(C)[C@@H]1C(O)=C(C(N)=O)C(=O)[C@@]2(O)C(O)=C3C(=O)c4c(O)cccc4[C@@](C)(O)[C@H]3C[C@@H]12",
    "MIC": "≤ 2 µg/mL"
  }
]

----------
System: Acinetobacter baumannii
test_method_notes: Antimicrobial susceptibility testing (MIC), BD Phoenix Automated Microbiology System
Assay type: cell-based
condition_description: Acinetobacter baumannii, read-out: minimal inhibiting concentration, Acinetobacter baumannii isolate 3

[
  {
    "molecule": "COc1c(N2CCNC(C)C2)c(F)cc2c(=O)c(C(=O)O)cn(C3CC3)c12 (stereo not shown)",
    "MIC": "4 µg/mL"
  },
  {
    "molecule": "O=C1CN(/N=C/c2ccc([N+](=O)[O-])o2)C(=O)N1",
    "MIC": "> 64 µg/mL"
  },
  {
    "molecule": "NC[C@H]1O[C@H](O[C@H]2[C@H](O)[C@@H](O[C@H]3O[C@H](CO)[C@@H](O)[C@H](N)[C@H]3O)[C@H](N)C[C@@H]2N)[C@H](N)C[C@@H]1O",
    "MIC": "> 8 µg/mL"
  },
  {
    "molecule": "CC1(C)S[C@@H]2[C@H](NC(=O)[C@H](N)c3ccccc3)C(=O)N2[C@H]1C(=O)O",
    "MIC": "> 16 µg/mL"
  },
  {
    "molecule": "C[C@H]1COc2c(N3CCN(C)CC3)c(F)cc3c(=O)c(C(=O)O)cn1c23",
    "MIC": "4 µg/mL"
  },
  {
    "molecule": "CO/N=C(\\C(=O)N[C@@H]1C(=O)N2C(C(=O)O)=C(COC(C)=O)CS[C@H]12)c1csc(N)n1",
    "MIC": "> 32 µg/mL"
  },
  {
    "molecule": "CO/N=C(\\C(=O)N[C@@H]1C(=O)N2C(C(=O)O)=C(COC(N)=O)CS[C@H]12)c1ccco1",
    "MIC": "> 16 µg/mL"
  },
  {
    "molecule": "C[C@@H](O)[C@H]1C(=O)N2C(C(=O)O)=C(SCCN=CN)C[C@H]12",
    "MIC": "> 8 µg/mL"
  },
  {
    "molecule": "C[C@@H](O)[C@H]1C(=O)N2C(C(=O)O)=C(S[C@@H]3CN[C@H](C(=O)N(C)C)C3)[C@H](C)[C@H]12",
    "MIC": "> 8 µg/mL"
  },
  {
    "molecule": "CCN1CCN(C(=O)N[C@@H](C(=O)N[C@@H]2C(=O)N3[C@@H]2SC(C)(C)[C@@H]3C(=O)O)c2ccccc2)C(=O)C1=O",
    "MIC": "> 64 µg/mL"
  }
]
